Attribute: Offscreen_24hr
system: parent strain (SAWy518)
No unit in the answer, only the number.

Worked cases, Offscreen_24hr given:
N#CC[C@@H](C1CCCC1)n1cc(-c2ncnc3[nH]ccc23)cn1 = 0.8199
CCCCCCCCCCCCC[N+](C)(C)Cc1ccccc1.[Cl-] [BENZALKONIUM CHLORIDE] = 0.056
O=C1C(Cl)=C(Cl)C(=O)C(Cl)=C1Cl = 0.4077

Shifting focus to the molecule that follows.
Would you please give the reported Offscreen_24hr of COc1cccc2c1C(=O)c1c(O)c3c(c(O)c1C2=O)C[C@@](O)(C(=O)CO)C[C@H]3O[C@H]1C[C@H](N)[C@H](O)[C@H](C)O1.Cl with parent strain (SAWy518)?
0.6005

* * *

system: parent strain (SAWy518)
Returns the class for an entry based on its Offscreen_18hr. Class ranges: Low = under 0.7, Medium = from 0.7 up to 0.8, High = 0.8 and over

Field: class (Offscreen_18hr) — entry: COc1ccc2c(c1)OCc1c-2oc2cc(OC)ccc12 [Dehydrovariabilin]
Medium

* * *

In this section we review reported Offscreen_42hr values for a set of compounds.
test system: parent strain (SAWy518)
Structures can show the parent of a compound that is named as a salt.
The reply should be a number, written without any unit.

COc1ncc(-c2ccc3nccc(-c4ccnnc4)c3c2)cc1NS(=O)(=O)c1ccc(F)cc1F [GSK2126458 (GSK458)] = 0.9364

Write down Offscreen_42hr measured for item CCOC(=O)[C@@H](N)Cc1ccc(-c2cc(O[C@H](c3ccc(Cl)cc3-n3ccc(C)n3)C(F)(F)F)nc(N)n2)cc1.O=C(O)CNC(=O)c1ccccc1 [Telotristat Etiprate]
0.9681

Look up and report measured Offscreen_42hr for this entry: O=c1cc(O)cc(/C=C/c2ccc(O)c(O)c2)o1
0.9435

Using known records, supply Offscreen_42hr for CN(C/C=C/C#CC(C)(C)C)Cc1cccc2ccccc12 [Terbinafine hydrochloride]
0.9146

Name the recorded Offscreen_42hr of the compound listed here: O=C1Nc2ccc(Cl)cc2[C@@](C#CC2CC2)(C(F)(F)F)O1
0.9373

Look up and state reported Offscreen_42hr for CC(C)(Oc1ccc(C2CC2(Cl)Cl)cc1)C(=O)O (stereo not shown) [Ciprofibrate]
0.9088

Item O=C(O)c1ccc(-n2nc(-c3ccccc3O)nc2-c2ccccc2O)cc1 : provide Offscreen_42hr
0.9291

Given CO[C@H]1O[C@@H]2O[C@@]3(C)CC[C@H]4[C@H](C)CC[C@@H]([C@H]1C)[C@@]24OO3 , respond with its Offscreen_42hr.
0.7035

Determine its reported Offscreen_42hr: O=C1C[C@@H](c2ccc(O)cc2)Oc2cc(O)cc(O)c21
0.9733

* * *

parent strain (SAWy518) Offscreen_18hr data
Lab note: jot down the number only; don't add units.

Give Offscreen_18hr only, for Cc1cc(C(C)(C)CC(C)(C)C)ccc1OCCOCC[N+](C)(C)Cc1ccccc1 , using parent strain (SAWy518) data.
0.7745

Report value only: Offscreen_18hr, parent strain (SAWy518), O=C(O)Cc1cc(I)c(Oc2ccc(O)c(I)c2)c(I)c1
0.6885

* * *

parent strain (SAWy518): recorded OffScreen_percentage for assorted compounds
Entry rule: numbers only, all in percentage.

C=CCOC(Cn1ccnc1)c1ccc(Cl)cc1Cl (centres unmarked) [Enilconazole] = 100.372
COC1=C(CC=C(C)C)C(=O)c2ccccc2C1=O [Lapachol methyl ester] = 101.524
O=c1c(O)c(-c2ccc(O)c(O)c2)oc2cc(O)cc(O)c12 [Quercetin, reference compound] = 96.0719

Jot down OffScreen_percentage (parent strain (SAWy518)) of CCCN1CCCC[C@H]1C(=O)Nc1c(C)cccc1C [Ropivacaine] .
101.016

Look up and report OffScreen_percentage, with parent strain (SAWy518) as system, for O=C(C1CCCCC1)N1CC(=O)N2CCc3ccccc3C2C1 (centres unmarked) [Praziquantel]
99.8637

# lookup: parent strain (SAWy518) OffScreen_percentage, key = N#CC(=C(\N)Sc1ccccc1N)/C(C#N)=C(/N)Sc1ccccc1N [U0126]
91.0905

Give OffScreen_percentage only, for CC1(C)O[C@@H]2C[C@H]3[C@@H]4C[C@H](F)C5=CC(=O)C=C[C@]5(C)[C@H]4[C@@H](O)C[C@]3(C)[C@]2(C(=O)CO)O1 [Flunisolide] , using parent strain (SAWy518) data.
95.601

Enter recorded OffScreen_percentage with parent strain (SAWy518) for CC(Cc1ccc(O)c(O)c1)C(C)Cc1ccc(O)c(O)c1 (centres unmarked) [Nordihydroguaiaretic acid, reference compound] here.
101.227

Report OffScreen_percentage from parent strain (SAWy518) testing of C=CCc1ccc(O)c(-c2ccc(O)c(CC=C)c2)c1 [Honokiol]
92.7385

State OffScreen_percentage on parent strain (SAWy518). Entry: CC(C(=O)O)c1ccc2c(c1)[nH]c1ccc(Cl)cc12 (centres unmarked) [Carprofen]
90.223

State, for parent strain (SAWy518), measured OffScreen_percentage of the compound listed here: CCOC(=O)[C@@H](N)Cc1ccc(-c2cc(O[C@H](c3ccc(Cl)cc3-n3ccc(C)n3)C(F)(F)F)nc(N)n2)cc1.O=C(O)CNC(=O)c1ccccc1 [Telotristat Etiprate]
96.9393

Enter OffScreen_percentage (test system parent strain (SAWy518)) for COc1ccc(CCN(C)CCCOc2ccc(S(=O)(=O)c3c(C(C)C)c4ccccc4n3C)cc2)cc1OC.O=C(O)C(=O)O [SR-33805]
95.9851

Report OffScreen_percentage from parent strain (SAWy518) testing of CC1=C(C)C(=O)C(C(CCCCCC(=O)O)c2ccccc2)=C(C)C1=O (centres unmarked) [Seratrodast]
93.9777

State OffScreen_percentage (parent strain (SAWy518)) of CCn1cc(-c2ccnc3[nH]c(-c4cccc(CN(C)C)c4)cc23)c(-c2ccc(NC(=O)N(C)C)cc2)n1 [GSK1070916] .
97.373

Look up and report OffScreen_percentage, with parent strain (SAWy518) as system, for Cc1ccc(S(=O)(=O)N[C@@H](Cc2ccccc2)C(=O)CCl)cc1 [TCPK]
91.0409

# return OffScreen_percentage for N#Cc1c(O)c2c(-c3ccc(-c4ccccc4O)cc3)csc2[nH]c1=O [A-769662] , test system: parent strain (SAWy518)
102.02

Look up and report measured OffScreen_percentage (parent strain (SAWy518)) for the following compound: O=C(/C=C/c1ccc(O)cc1)c1ccccc1 [4-hydroxychalcone, reference compound]
103.693
